# IC50 against Serine/threonine-protein kinase pim-2 (Homo sapiens, UniProt Q9P1W9), merged from multiple literature sources
ASSAY_ENDPOINT: IC50 (nM)

Below, 4 compounds whose answers are already recorded.
C[C@H]1C[C@@H](c2ccncc2NC(=O)c2ccc(F)c(-c3c(F)ccc(OCCO)c3F)n2)C[C@@H](N)[C@@H]1O :: 11.4
Cc1cc(-c2ccnc3cnc(-c4nc(-c5cc(C(=O)NC(C)C)ccc5F)ccc4N)cc23)cc(N)n1 :: 350
CC(C)NC(=O)c1ccc(F)c(-c2ccc(N)c(-c3cc4c(N5CCC[C@@H](N)C5)ccnc4cn3)n2)c1 :: 81
CCc1nn(C)c2c1/C=C/c1n[nH]c3ccc(cc13)-c1cnn(C)c1OCCN(C)C2=O :: 5.68

(P) Cc1cc(F)c(-c2nc(C(=O)Nc3cnccc3[C@H]3C[C@@H](N)C[C@@H](C(C)C)C3)ccc2F)c(F)c1
(Q) C[C@H]1C[C@@H](c2ccncc2NC(=O)c2ccc(F)c(-c3c(F)cc(O[C@@H]4CCCOC4)cc3F)n2)C[C@@H](N)[C@@H]1O
Prompt: Pick the one with the larger IC50: P vs Q Mark your answer with the label of the selected entry.
Response: Q

(a) COc1ccc(F)c(-c2nc(C(=O)Nc3cnccc3[C@@H]3C[C@H](C)C[C@H](N)C3)ccc2F)c1F
(b) O=C(O)/C=C/c1cccc(-c2cncc(N3CCOCC3)n2)c1
Prompt: Pick the one with the larger IC50: a vs b Mark your answer with the label of the selected entry.
Response: b

(a) COCCOc1cc(F)c(-c2nc(C(=O)Nc3cnccc3[C@H]3C[C@@H](N)C[C@@H](C(C)C)C3)ccc2F)c(F)c1
(b) N[C@@H]1CN(c2ccncc2NC(=O)c2csc(-c3c(F)cccc3F)n2)CC[C@@H]1O
(c) CCOc1ccc(F)c(-c2nc(C(=O)Nc3cnccc3[C@@H]3C[C@H](C)C[C@H](N)C3)ccc2F)c1F
Prompt: Ascending by IC50, please. When ranking, write the labels in the order the request describes.
Response: a, b, c
(a: 0.98 nM, b: 3 nM, c: 8.92 nM)

----------
pIC50: −log10 of the molar value.
# pIC50 against Serine/threonine-protein kinase pim-2 (Homo sapiens), merged from multiple literature sources
ASSAY_ENDPOINT: pIC50

(P) COCCOc1cc(F)c(-c2nc(C(=O)Nc3cnccc3[C@H]3C[C@@H](N)[C@H](O)[C@@H](C)C3)c(N)cc2F)c(F)c1
(Q) Cc1noc(C)c1-c1cc(F)c(-c2nc(C(=O)Nc3cnccc3[C@H]3C[C@@H](N)[C@H](O)[C@@H](C)C3)ccc2F)c(F)c1
Prompt: Param metric = pIC50; output whichever of P , Q has the minimum value. Mark your answer with the label of the selected entry.
Response: Q

(P) C[C@@H]1C[C@H](N)C[C@H](c2ccncc2NC(=O)c2ccc(F)c(-c3c(F)cc(O[C@H]4CCCOC4)cc3F)n2)C1
(Q) Nc1ccc(-c2cccc(S(N)(=O)=O)c2)nc1-c1cc2c(N3CCC[C@H](N)C3)ccnc2cn1
(R) COC1(c2cc(F)c(-c3nc(C(=O)Nc4cnccc4[C@H]4C[C@@H](N)[C@H](O)[C@@H](C)C4)ccc3F)c(F)c2)COC1
Prompt: Order the items by recorded pIC50; the first position goes to the largest value. When ranking, write the labels in the order the request describes.
Response: P, R, Q

(A) C[C@@H]1C[C@H](N)C[C@H](c2ccncc2NC(=O)c2ccc(F)c(-c3c(F)cc(C4(O)CCC4)cc3F)n2)C1
(B) C[C@H]1C[C@@H](c2ccncc2NC(=O)c2ccc(F)c(-c3c(F)cc(C4(F)COC4)cc3F)n2)C[C@@H](N)[C@H]1O
(C) O=C1NC(=O)/C(=C/c2cccc(OC(F)(F)F)c2)S1
(D) O=C(O)/C=C/c1cccc(-c2cncc(N3CCCN(Cc4ccccc4)CC3)n2)c1
Prompt: Ascending by pIC50, please. When ranking, write the labels in the order the request describes.
Response: C, D, B, A

(A) C[C@H]1CN(c2ccncc2NC(=O)c2nc(-c3c(F)cc(OC4CCOCC4)cc3F)c(F)cc2N)C[C@@H](N)[C@@H]1O
(B) CCOC(C)(C)c1cc(F)c(-c2nc(C(=O)Nc3cnccc3[C@H]3C[C@@H](N)[C@H](O)[C@@H](C)C3)ccc2F)c(F)c1
Prompt: Param metric = pIC50; output whichever of A , B has the minimum value. Mark your answer with the label of the selected entry.
Response: B
